Target: GlcNAc(b1-3)Gal(b1-3)GalNAc
Assay: glycan array binding signal (z-score within array); higher = stronger binding
Conditions: glycan notation: IUPAC condensed, linker removed
Many of the other results were omitted from the sample, so the strongest signals are more common in it than they were.

binder | glycan array binding signal (z-score)
chitinase 3-like protein 2 (Homo sapiens) (protein) YKLVCYFTQWSQDRQEPGKFTPENIDPFLCSHLIYSFASIENNKVIIKDKSEVMLYQTINSLKTKNPKLKILLSIGGYLFGSKGFHPMVDSSTSRLEFINSIILFLRNHNFDGLDVSWIYPDQKENTHFTVLIHELAEAFQKDFTKSTKERLLLTAGVSAGRQMIDNSYQVEKLAKDLDFINLLSFDFHGSWEKPLITGHNSPLSKGWQDRGPSSYYNVEYAVGYWIHKGMPSEKVVMGIPTYGHSFTLASAETTVGAPASGPGAAGPITESSGFLAYYEICQFLKGAKITRLQDQQVPYAVKGNQWVGYDDVKSMETKVQFLKNLNLGGAMIWSIDMDDFTGKSCNQGPYPLVQAVKRSLGSL | -0.22
MPA (Maclura pomifera) (protein) GVTFDDGAYTGIREINFEYNSETAIGGLRVTYDLNGMPFVAEDHKSFITGFKPVKISLEFPSEYIVEVSGYVGKVEGYTVIRSLTFKTNKQTYGPYGVTNGTPFSLPIENGLIVGFKGSIGYWLDYFSIYLSLNGPNGKSQSIIVGPWGDRVTN | 3.46
Si Bti9 1b-HA (Solanum lycopersicum) (protein) MFESRPRSVLSLGVFVILVYLSSVPLPVNSQCNRGCDLALASFYVWRGSNLTLISEMFSTSIADIVSYNNRDNIPNQDSVIAGTRINIPFRCDCLNDGEVLGHAFPYRVKSGDTYDLVARNYSDLTTAQWMMKFNSYPENNIPNTVNLSVVVNCSCGNSDVSKDFGLFVTYPVRAEDNLTSVASAANVSEDIIRRYNPAAVSILDIGQGIIYIPGRDRNGNFPPLPTSTDGLSGGAKAPLFFNPAFLYKVVELKLAGRSRTSGYPYDVPDYAGYPYDVPDYALEVLFQ | -0.271
MD-2 (Homo sapiens) (protein) MLPFLFFSTLFSSIFTEAQKQYWVCNSSDASISYTYCDKMQYPISINVNPCIELKGSKGLLHIFYIPRRDLKQLYFNLYITVNTMNLPKRKEVICRGSDDDYSFCRALKGETVNTTISFSFKGIKFSKGKYKCVVEAISGSPEEMLFCLEFVILHQPNSN | -0.326
